Tested on: NCI-H23
measurementDescription: NCI tumour cell line growth inhibition, 48 h
Active and inactive are the calls of the source. Rule as the data show it: active = GI50 up to about 1.1 µM and inactive = higher.
Listing: GI50 of selected molecules

molecule	GI50
O=C1C2=C(c3ccccc31)C(c1cccc(Cl)c1)NC(S)=N2 (configuration not stated)	> 100 µM (inactive)
CC(C)CC(=O)OC[n+]1ccc(-c2c(COC(=O)NC(C)C)c(COC(=O)NC(C)C)c3n2CCC3)cc1	75.2 µM (inactive)
CC(/C=N/N=C(N)N)=N\N=C(N)N	18.5 µM (inactive)
COC(=O)c1cc2c3ccccc3n(C(C)=O)c2cn1	83.4 µM (inactive)
CN(C)c1nc(NC23CC4CC(CC(C4)C2)C3)nc(N(C)C)n1	9.33 µM (inactive)
CCc1cc2c(cc1CCCC(=O)O)CC1(Cc3ccc(C(=O)O)cc3C1)C2 (configuration not stated)	> 100 µM (inactive)
CC1=COC(C)(C=C(C#N)C#N)CC1 (configuration not stated)	61 µM (inactive)
